B1: TSPAN10 (parent)
chain: EGCGPPLRRWLRANLAASGGYAIA

Variants of: B1
method_notes: protein stability index of a GFP-peptide fusion (GPS, HEK-293T) (PSI 1-6); higher = more stable;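 note: lentivirally expressed fusions sorted by FACS into six bins by GFP to DsRed ratio, PSI derived from sequencing read proportions per bin multiplied by bin number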
condition_notes: c terminus: a fixed tail appended
For each record, write down the corresponding protein stability index.

See these solved cases before continuing.
>>> print(df.to_string())
                construct_sequence  test_result
0   KGCGPPLRRWLRANLAASGGYAIA [E1K]         1.42
1   NGCGPPLRRWLRANLAASGGYAIA [E1N]         1.96
2  EGCGPPLRRWLRANLAASGGYHIA [A22H]         2.23
3  EGCGPPLRRWLRANLAASGGYEIA [A22E]         2.28
4   EGCGSPLRRWLRANLAASGGYAIA [P5S]         1.44
5  EGCGPPLRRWPRANLAASGGYAIA [L11P]         2.65

Please give protein stability index, item by item, for the list that follows.
1. EGCGPPLRRWLRANLANSGGYAIA [A17N]
2. EGCRPPLRRWLRANLAASGGYAIA [G4R]
3. EGCGPPLRRWLRANKAASGGYAIA [L15K]

Result block:
1. 2.96
2. 2.44
3. 2.53
